# target.under.test: RIPK1 (Homo sapiens, UniProt Q13546)
# Construct: endogenous in cells
# Sequence (Q13546 1-671): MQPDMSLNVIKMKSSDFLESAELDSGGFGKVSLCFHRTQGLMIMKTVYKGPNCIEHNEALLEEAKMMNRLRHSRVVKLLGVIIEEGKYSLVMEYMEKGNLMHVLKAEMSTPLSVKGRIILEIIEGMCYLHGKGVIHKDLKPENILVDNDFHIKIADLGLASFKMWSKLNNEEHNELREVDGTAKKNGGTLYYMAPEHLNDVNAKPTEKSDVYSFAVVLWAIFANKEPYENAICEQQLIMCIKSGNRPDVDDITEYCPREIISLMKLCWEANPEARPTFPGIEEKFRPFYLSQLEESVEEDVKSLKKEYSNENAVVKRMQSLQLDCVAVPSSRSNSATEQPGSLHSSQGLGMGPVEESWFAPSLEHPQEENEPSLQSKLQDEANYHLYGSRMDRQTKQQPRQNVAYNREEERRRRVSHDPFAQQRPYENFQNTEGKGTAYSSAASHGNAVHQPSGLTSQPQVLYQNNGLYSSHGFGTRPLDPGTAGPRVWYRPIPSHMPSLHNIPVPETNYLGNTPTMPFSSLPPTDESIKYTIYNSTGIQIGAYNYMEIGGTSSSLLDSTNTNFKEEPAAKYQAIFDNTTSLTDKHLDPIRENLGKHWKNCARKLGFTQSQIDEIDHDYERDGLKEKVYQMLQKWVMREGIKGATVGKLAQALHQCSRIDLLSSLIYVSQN
# test.method.notes: RIPK1 degradation Western Blot assay
# Assay type: cell-based
# stated.conditions: human cells, 24 h incubation at 37° C., read-out: Degradation Activity (DC50, concentration at which 50% of RIPK1 kinase has been degraded)
# Procedure: Cells were seeded in 6-well cell culture plates overnight prior to treatment and incubated with the indicated doses of compounds for 24 h at 37° C. Then, cell pellets were collected and resuspended with RIPA lysis buffer, which was added with 1% […] inhibitor and phosphatase inhibitor Cocktail. […] The supernatants were determined using the BCA method. […] Changes in protein expression was detected using an enhanced chemiluminescence detection reagent. […]
I'd appreciate it if you could supply DC50 values for the items below.

Worked cases, DC50 given:
compound	result
Cc1ncsc1-c1ccc([C@H](C)NC(=O)[C@@H]2C[C@@H](O)CN2C(=O)[C@@H](NC(=O)c2ccc(C#Cc3ccc(C(=O)NCCCn4cc(-c5ccc6c(c5)CCN6C(=O)Cc5cccc(OC(F)(F)F)c5)c5c(N)ncnc54)cc3)cn2)C(C)(C)C)cc1	< 1000 nM
Cn1c(=O)n(C2CCC(=O)NC2=O)c2ccc(CCC(=O)N3CCC(C#Cc4ccc(C(=O)NCCCn5cc(-c6ccc7c(c6)CCN7C(=O)Cc6cccc(OC(F)(F)F)c6)c6c(N)ncnc65)cc4)CC3)cc21 (centres unmarked)	< 1000 nM
Cc1ncsc1-c1ccc([C@H](CC(=O)NCCCCCCCCC(=O)NCCCn2cc(-c3ccc4c(c3)CCN4C(=O)Cc3cccc(OC(F)(F)F)c3)c3c(N)ncnc32)NC(=O)[C@@H]2C[C@@H](O)CN2C(=O)[C@H](NC(=O)C2(F)CC2)C(C)(C)C)cc1	< 1000 nM

Okay, here is my list. What is DC50 for each of these?
1. O=C1CCC(C2C(=O)c3cccc(NCCOCCOCCC(=O)N4CCC(C(=O)N5N=CCC5c5ccccc5)CC4)c3C2=O)C(=O)N1 (centres unmarked)
2. Cc1ncsc1-c1ccc([C@H](C)NC(=O)[C@@H]2C[C@@H](O)CN2C(=O)[C@@H](NC(=O)CCOCCOCCOCCNC(=O)c2ccc(-c3cc(N4CCC(C(=O)N5N=CCC5c5ccccc5)CC4)ncn3)cc2)C(C)(C)C)cc1 (some centres unmarked)

[A]
> 10000 nM
> 10000 nM
